molecular target: UniProt:P40879; test: YFP halide-sensor anion transport assay in HEK293 cells expressing human SLC26A3
Sequence (P40879 whole entry): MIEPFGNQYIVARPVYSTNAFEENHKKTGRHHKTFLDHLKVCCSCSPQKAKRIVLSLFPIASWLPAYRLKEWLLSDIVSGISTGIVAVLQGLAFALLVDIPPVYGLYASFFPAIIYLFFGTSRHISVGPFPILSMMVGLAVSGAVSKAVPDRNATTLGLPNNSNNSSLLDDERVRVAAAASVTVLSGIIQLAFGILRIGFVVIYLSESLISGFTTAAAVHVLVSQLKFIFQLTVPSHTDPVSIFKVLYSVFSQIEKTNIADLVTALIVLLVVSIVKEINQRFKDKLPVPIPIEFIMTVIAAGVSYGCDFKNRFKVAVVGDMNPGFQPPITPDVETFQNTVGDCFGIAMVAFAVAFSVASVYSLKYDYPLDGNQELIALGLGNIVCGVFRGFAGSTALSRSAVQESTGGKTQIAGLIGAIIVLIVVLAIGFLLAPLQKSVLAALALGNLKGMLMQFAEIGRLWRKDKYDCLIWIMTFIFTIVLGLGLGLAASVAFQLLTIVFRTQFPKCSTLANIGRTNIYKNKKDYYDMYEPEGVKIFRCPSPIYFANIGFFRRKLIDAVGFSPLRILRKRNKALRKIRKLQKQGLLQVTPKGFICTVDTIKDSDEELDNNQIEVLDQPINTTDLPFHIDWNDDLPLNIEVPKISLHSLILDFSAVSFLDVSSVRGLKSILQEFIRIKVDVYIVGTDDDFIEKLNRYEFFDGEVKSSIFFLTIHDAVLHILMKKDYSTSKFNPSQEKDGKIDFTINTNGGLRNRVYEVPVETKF
readout_type: pIC50
pIC50 is a log-scale quantity: -log10 of the concentration expressed in molar.

Using the record for Cc1c(CC(=O)O)c(=O)oc2c(C)c(OCc3cccc(I)c3)ccc12 , report its pIC50.
7.70

---

target: SLC26A3 (murine) (Mus musculus); assay: YFP oxalate/chloride exchange assay in FRT cells stably expressing murine SLC26A3; Transwell oxalate transport
Sequence (Q9WVC8 whole entry): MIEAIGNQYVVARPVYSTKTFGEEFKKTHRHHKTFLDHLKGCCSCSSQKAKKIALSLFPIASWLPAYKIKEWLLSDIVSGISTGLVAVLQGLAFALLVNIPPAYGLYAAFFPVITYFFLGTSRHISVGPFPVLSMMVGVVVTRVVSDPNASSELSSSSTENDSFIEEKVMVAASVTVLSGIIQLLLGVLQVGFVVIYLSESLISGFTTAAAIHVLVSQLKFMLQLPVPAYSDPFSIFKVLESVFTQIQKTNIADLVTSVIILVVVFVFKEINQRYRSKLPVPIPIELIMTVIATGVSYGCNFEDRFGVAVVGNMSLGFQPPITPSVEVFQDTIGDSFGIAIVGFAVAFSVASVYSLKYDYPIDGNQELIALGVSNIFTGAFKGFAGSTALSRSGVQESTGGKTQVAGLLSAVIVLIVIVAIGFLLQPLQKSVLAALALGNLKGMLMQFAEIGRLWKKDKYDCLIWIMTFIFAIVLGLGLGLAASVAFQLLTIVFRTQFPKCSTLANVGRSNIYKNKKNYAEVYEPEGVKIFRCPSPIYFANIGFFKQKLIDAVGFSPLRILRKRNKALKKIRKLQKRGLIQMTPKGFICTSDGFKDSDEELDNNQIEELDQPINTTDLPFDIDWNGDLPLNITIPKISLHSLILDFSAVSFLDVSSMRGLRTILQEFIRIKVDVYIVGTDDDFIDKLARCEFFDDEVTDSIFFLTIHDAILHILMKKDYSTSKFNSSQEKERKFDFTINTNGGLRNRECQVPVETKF
pIC50: −log10 of the molar value.
readout_type: pIC50

Using the record for Cc1c(CC(=O)O)c(=O)oc2c(C)c(OCc3cccc(I)c3)ccc12 , report its pIC50.
~7.22
